# System: cGMP-PDE V
# experiment.description: c-GMP-PDE V inhibitory activity
# Type: biochemical, various animal species and man
# measurement.parameters: 10 μM
# Percent Inhibition cGMP-PDE V values compiled below
test.readout: Percent Inhibition cGMP-PDE V

| compound | val |
| --- | --- |
| CCn1ncc2c(NCC3(O)CCCCC3)c3cc(OC)ccc3nc21 [Example 32] | 96% |
| CCn1ncc2c(NCC3CCC(=O)CC3)c3cc(OC)ccc3nc21 [28(b)] | 79% |
| CCn1ncc2c(NCC3CCC(C(=O)OCSC)CC3)c3ccccc3nc21 (stereo not shown) [Example 5] | 81% |
| CCn1ncc2c(NCC3CCCCC3)c3ccc(N)cc3nc21 [Example 25] | 95% |

* * *

# Test system: cGMP-PDE V
# experiment.description: c-GMP-PDE V inhibitory activity
# Format: biochemical, various animal species and man
# measurement.parameters: separate experimental runs, first value
# Description: The cGMP-PDE and other PDE isozymes were isolated from cardiovascular tissues (heart and aorta) of various animal species and man by anion-exchange and affinity chromatography as described by Silver et al., Sec. Messeng. Phos. 13:13-25, 1991; PDE activity, in the presence and absence of test compounds was determined essentially as described by Thompson et al., Adv. Cyclic Nucleotide Res. 10:69-92. […]
pIC50: −log10 of the molar value.

| smiles.structure | pIC50 |
| --- | --- |
| CCn1ncc2c(N[C@@H](C)C3CCCCC3)c3cc(S(C)(=O)=O)ccc3nc21 | 8.08 |
| CC[C@H](Nc1c2cc([N+](=O)[O-])ccc2nc2c1cnn2CC)C1CCCCC1 | 8.23 |
| CCn1ncc2c(N[C@@H](C)C3CCCCC3)c3cc(-n4cccn4)ccc3nc21 | 9.70 |
| CCn1ncc2c(N[C@@H](C)C3CCCCC3)c3cc([N+](=O)[O-])ccc3nc21 | 9.66 |
| CCn1ncc2c(N[C@H](C)C3CCCCC3)c3cc(OC)ccc3nc21 | 6.47 |
| CCn1ncc2c(N[C@H](C)C3CCCCC3)c3cc([N+](=O)[O-])ccc3nc21 | 8.07 |
| CCn1ncc2c(N[C@@H](C)C3CCCCC3)c3cc(OC)ccc3nc21 | 8.59 |

* * *

# Test system: Spontaneously hypertensive rats (SHR)
# experiment.description: Antihypertensive activity in spontaneously hypertensive rats, iv
# Type: in vivo, rat
# measurement.parameters: Rattus norvegicus, 5 min, 10 mg/kg, cumulative dosing, 5 minutes after dose, read-out: % change in mean arterial pressure
# Protocol: After a 2 day recovery from surgery, three baseline blood pressure measurements were made at 5 min intervals in conscious SHR. Compounds to be tested or vehicle were then administered intravenously in a dose-dependent manner (0.3-10 mg base/kg) while arterial pressure was recorded continuously on a polygraph. The mean arterial pressure response was measured 5 minutes after the administration of each dose of the test compound and the next dose given in a cumulative dose fashion. […]
Below, each entry is listed with its recorded change in vivo at 10 mg/kg.

| compound | change in vivo at 10 mg/kg |
| --- | --- |
| CCn1ncc2c(NCC3CCCCC3)c3cc(OCC4CO4)ccc3nc21 (stereo not drawn) | -12% |
| CCn1ncc2c(NCC3CCCCC3)c3cc(OCC(O)CO)ccc3nc21 (stereo not drawn) | -6% |
| CCn1ncc2c(NCC3CCC(CO)CC3)c3ccccc3nc21 (stereo not drawn) | -23% |
| CCn1ncc2c(N[C@@H](C)C3CCCCC3)c3cc(S(C)(=O)=O)ccc3nc21 | -18% |
| CCn1ncc2c(NCC3CCCCC3)c3cc(OC(C)C(=O)O)ccc3nc21 (stereo not drawn) | -7% |
| CCn1ncc2c(NCC3CCCCC3)c3ccccc3nc21 | -15% |

* * *

Catalogue of compounds with associated change in vivo at 3 mg/kg
# Tested on: Spontaneously hypertensive rats (SHR)
# experiment.description: Antihypertensive activity in spontaneously hypertensive rats, iv
# Format: in vivo, rat
# measurement.parameters: Rattus norvegicus, 5 min, 3 mg/kg, cumulative dosing, 5 minutes after dose, read-out: % change in mean arterial pressure

| compound | measurement.units | change in vivo at 3 mg/kg |
| --- | --- | --- |
| CCn1ncc2c(NCC3CCCCC3)c3cc(OC)ccc3nc21 [7(d)] | % | -16 |
| CCn1ncc2c(NCC3CCCCC3)c3cc([N+](=O)[O-])ccc3nc21 [15(c)] | % | -18 |
| CCn1ncc2c(NCC3CCCCC3)c3ccc(C(=O)O)cc3nc21 [23(c)] | % | -7 |
| CCn1ncc2c(N[C@@H](C)C3CCCCC3)c3cc(S(C)(=O)=O)ccc3nc21 [37(d)] | % | -15 |

All figures here come from patent US5488055A.
